System: 883617-216-R-J1-PDC complex spheroid viability;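 also: spheroids exposed to compounds for seven days before readout; 100% = DMSO vehicle control viability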
Assay: Anticancer human tumor 883617-216-R-J1-PDC patient-derived bladder carcinoma cell line growth inhibition [POLQ]
Conditions: second compound 0.316 µM; first compound 0.1 µM; hits give low values
List of viability, T/C values.
// units = %; emit number, no label

Reference set, count: 3
# compound, viability, T/C (%)
records = [
    ("C#Cc1c(F)ccc2cc(O)cc(-c3ncc4c(N5CC6CCC(C5)N6)nc(OCC56CCCN5CC(F)C6)nc4c3F)c12 (stereo not given) + Nc1ccc(C#CCN(C(=O)Cc2ncc(C(F)(F)F)cc2C(F)(F)F)c2ccc(F)cc2)nn1", 84.2),
    ("O=C(c1cc(Cc2n[nH]c(=O)c3ccccc23)ccc1F)N1CCN(C(=O)C2CC2)CC1 + COC1C(OC(N)=O)C(O)C(Oc2ccc3c(O)c(NC(=O)c4ccc(O)c(CC=C(C)C)c4)c(=O)oc3c2C)OC1(C)C", 87.6),
    ("CC1COCCN1c1cc(-c2ccnn2C)c2ccnc(-c3ccn[nH]3)c2n1 (stereo not given) + Cc1cccc(N(C)C(=O)C2C(O)CCN2c2nc(C)cc(C(F)(F)F)c2C#N)c1", 63.1),
]

Tell me the measured viability, T/C of COc1cc(C2c3cc4c(cc3C(OC3OC5COC(C)OC5C(O)C3O)C3COC(=O)C23)OCO4)cc(OC)c1O (stereo not given) + COC1C(OC(N)=O)C(O)C(Oc2ccc3c(O)c(NC(=O)c4ccc(O)c(CC=C(C)C)c4)c(=O)oc3c2C)OC1(C)C , please.
90.2

Tell me the measured viability, T/C of COc1ccc([C@@H](O)c2cc(-c3ncnc4cc(N5CCOCC5)ccc34)c(F)cc2Cl)nn1 + COC1C(OC(N)=O)C(O)C(Oc2ccc3c(O)c(NC(=O)c4ccc(O)c(CC=C(C)C)c4)c(=O)oc3c2C)OC1(C)C , please.
89.2

Tell me the measured viability, T/C of CC[C@@]1(O)C(=O)OCc2c1cc1n(c2=O)Cc2cc3c(CN(C)C)c(O)ccc3nc2-1 + Cc1cccc(N(C)C(=O)C2C(O)CCN2c2nc(C)cc(C(F)(F)F)c2C#N)c1 , please.
64.4

Tell me the measured viability, T/C of O=C(c1cc(Cc2n[nH]c(=O)c3ccccc23)ccc1F)N1CCN(C(=O)C2CC2)CC1 + Nc1ccc(C#CCN(C(=O)Cc2ncc(C(F)(F)F)cc2C(F)(F)F)c2ccc(F)cc2)nn1 , please.
109

Tell me the measured viability, T/C of C#Cc1c(F)ccc2cc(O)cc(-c3ncc4c(N5CC6CCC(C5)N6)nc(OCC56CCCN5CC(F)C6)nc4c3F)c12 (stereo not given) + Cc1cccc(N(C)C(=O)C2C(O)CCN2c2nc(C)cc(C(F)(F)F)c2C#N)c1 , please.
101

Tell me the measured viability, T/C of CC(C)n1c(=O)n(C)c2cnc3cc(F)c(-c4ccc(OCCCN5CCCCC5)nc4)cc3c21 + Cc1cccc(N(C)C(=O)C2C(O)CCN2c2nc(C)cc(C(F)(F)F)c2C#N)c1 , please.
93.6

Tell me the measured viability, T/C of CC1COCCN1c1cc(C2(S(C)(=N)=O)CC2)nc(-c2ccnc3[nH]ccc23)n1 (stereo not given) + COC1C(OC(N)=O)C(O)C(Oc2ccc3c(O)c(NC(=O)c4ccc(O)c(CC=C(C)C)c4)c(=O)oc3c2C)OC1(C)C , please.
89.6

Tell me the measured viability, T/C of COc1cc(C2c3cc4c(cc3C(OC3OC5COC(C)OC5C(O)C3O)C3COC(=O)C23)OCO4)cc(OC)c1O (stereo not given) + Cc1cccc(N(C)C(=O)C2C(O)CCN2c2nc(C)cc(C(F)(F)F)c2C#N)c1 , please.
85.9

Tell me the measured viability, T/C of CC(C)n1c(=O)n(C)c2cnc3cc(F)c(-c4ccc(OCCCN5CCCCC5)nc4)cc3c21 + COC1C(OC(N)=O)C(O)C(Oc2ccc3c(O)c(NC(=O)c4ccc(O)c(CC=C(C)C)c4)c(=O)oc3c2C)OC1(C)C , please.
92.2

Tell me the measured viability, T/C of CCCS(=O)(=O)Nc1ccc(F)c(C(=O)c2c[nH]c3ncc(-c4ccc(Cl)cc4)cc23)c1F + Nc1ccc(C#CCN(C(=O)Cc2ncc(C(F)(F)F)cc2C(F)(F)F)c2ccc(F)cc2)nn1 , please.
92.8

Tell me the measured viability, T/C of C=CC(=O)N1CCN(c2nc(=O)n(-c3c(C)ccnc3C(C)C)c3nc(-c4c(O)cccc4F)c(F)cc23)C(C)C1 (stereo not given) + COC1C(OC(N)=O)C(O)C(Oc2ccc3c(O)c(NC(=O)c4ccc(O)c(CC=C(C)C)c4)c(=O)oc3c2C)OC1(C)C , please.
78.7

Tell me the measured viability, T/C of CC1COCCN1c1cc(-c2ccnn2C)c2ccnc(-c3ccn[nH]3)c2n1 (stereo not given) + Nc1ccc(C#CCN(C(=O)Cc2ncc(C(F)(F)F)cc2C(F)(F)F)c2ccc(F)cc2)nn1 , please.
58.4

Tell me the measured viability, T/C of CCc1cc2c(N3CCc4c(cc(Cn5ccnc5)cc4-c4cn(C)nc4C(F)(F)F)C3=O)ccnc2c(OC)n1 + Nc1ccc(C#CCN(C(=O)Cc2ncc(C(F)(F)F)cc2C(F)(F)F)c2ccc(F)cc2)nn1 , please.
107

Tell me the measured viability, T/C of CNCc1ccc(-c2[nH]c3cc(F)cc4c3c2CCNC4=O)cc1 + Nc1ccc(C#CCN(C(=O)Cc2ncc(C(F)(F)F)cc2C(F)(F)F)c2ccc(F)cc2)nn1 , please.
81.3

Tell me the measured viability, T/C of CCc1cc2c(N3CCc4c(cc(Cn5ccnc5)cc4-c4cn(C)nc4C(F)(F)F)C3=O)ccnc2c(OC)n1 + Cc1cccc(N(C)C(=O)C2C(O)CCN2c2nc(C)cc(C(F)(F)F)c2C#N)c1 , please.
104

Tell me the measured viability, T/C of O=C(c1cc(Cc2n[nH]c(=O)c3ccccc23)ccc1F)N1CCN(C(=O)C2CC2)CC1 + Cc1cccc(N(C)C(=O)C2C(O)CCN2c2nc(C)cc(C(F)(F)F)c2C#N)c1 , please.
90.3

Tell me the measured viability, T/C of C=CC(=O)N1CCN(c2nc(=O)n(-c3c(C)ccnc3C(C)C)c3nc(-c4c(O)cccc4F)c(F)cc23)C(C)C1 (stereo not given) + Nc1ccc(C#CCN(C(=O)Cc2ncc(C(F)(F)F)cc2C(F)(F)F)c2ccc(F)cc2)nn1 , please.
64.8
